Target: T1, Trx-1α (thioredoxin-tagged HIF-1α 1-350, bHLH-PASA-PASB) (UniProt Q16665 1-350)
T1 construct: range 1-350; not shown: Thioredoxin-His6 tag of vector pET32
Experiment: competition ELISA: His-tagged Trx-1α on Ni plate, peptide titrated, binding of GST-1β (blocked partner) detected with anti-GST, A450
Procedure: IC₅₀ values for the compound=3.7 μM/8.8 μM for 1α/2α. 25 μL of His-tagged HIF-α protein (either Trx-1α, Trx-2α, 1α PASB, or 2α PASB) at 0.1 μM in HIF assay buffer were added to individual wells of a Pierce Ni²⁺-coated 96-well plate (Thermo) in triplicate. […] Absorbance was read at 450 nm using a Tecan Infinite M200 Pro plate reader. Data were fitted and IC₅₀ values determined by non-linear regression using GraphPad Prism 6.
test-readout: IC50
Write the figure, then the unit, nothing else.

Exercise: Provide one value: measured IC50 of CRVIIF (cyclic peptide (cyclo-, first amino acid joined to the last), also called Compound C) [cyclo-CRVIIF (SEQ ID NO 4)]
Solution: 115 µM

Exercise: Provide one value: measured IC50 of CRLLIF (cyclic peptide (cyclo-, first amino acid joined to the last), One of the 4 cyclic peptide hits of the SICLOPPS screen; made by solid phase synthesis; also called CRLLIX where X = F) [cyclo-CRLLIF (SEQ ID NO 3)]
Solution: 102 µM
